AC50 for assorted molecules
targetOfAssay: glucocerebrosidase (Homo sapiens, UniProt P04062)
Sequence (P04062 40-536): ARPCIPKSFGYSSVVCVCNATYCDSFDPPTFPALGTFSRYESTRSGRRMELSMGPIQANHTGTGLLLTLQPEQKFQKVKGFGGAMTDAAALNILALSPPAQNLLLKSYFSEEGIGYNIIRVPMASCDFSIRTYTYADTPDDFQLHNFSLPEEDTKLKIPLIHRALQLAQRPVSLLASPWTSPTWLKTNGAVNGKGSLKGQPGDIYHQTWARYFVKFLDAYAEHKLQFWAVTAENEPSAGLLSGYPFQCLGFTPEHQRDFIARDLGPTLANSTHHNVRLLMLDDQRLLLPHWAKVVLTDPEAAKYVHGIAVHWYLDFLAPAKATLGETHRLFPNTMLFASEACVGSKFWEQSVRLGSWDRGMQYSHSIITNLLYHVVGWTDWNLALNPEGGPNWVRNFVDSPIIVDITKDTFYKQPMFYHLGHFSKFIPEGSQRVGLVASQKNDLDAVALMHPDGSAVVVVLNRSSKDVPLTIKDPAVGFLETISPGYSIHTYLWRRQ
procedureSummary: Glucocerebrosidase activity assay with blue substrate (4MU-Glc)
Format: biochemical
testParameters: Table 2; additional compounds, tested as described in Example 2
The reply should consist of the numeric value with the unit placed after it.

{"molecule": "CCCCCCCCCN(C)c1nc(-c2cccnc2)nc2ccccc12", "testValue": "6.31 µM"}
{"molecule": "c1ccc(O[C@@H]2CCN(c3nc(-c4cccnc4)nc4ccccc34)C2)cc1", "testValue": "1.78 µM"}

Exercise: I would be grateful if you could share the reported AC50 for CN(CCOc1ccccc1)c1cc(C2CC[C@H](O)C2)nc(-c2cccnc2)n1 (some centres unmarked) .
Key: 8.9 µM

Exercise: I would be grateful if you could share the reported AC50 for Cc1cc(-c2nc(N(C)CCOc3ccccc3)c3ccccc3n2)ccn1 .
Key: 15.8 µM

Exercise: I would be grateful if you could share the reported AC50 for CCn1ncc2c(N(C)CCOc3ccc(CNC(=O)CNC(=O)OC(C)(C)C)cc3)nc(-c3cccnc3)nc21 .
Key: 6.31 µM

Exercise: I would be grateful if you could share the reported AC50 for CN(CCOc1ccccc1)c1cc(N2CCC(O)CC2)nc(-c2cccnc2)n1 .
Key: 28.2 µM

Exercise: I would be grateful if you could share the reported AC50 for c1ccc(OC2CCN(c3nc(-c4cccnc4)nc4ccccc34)CC2)cc1 .
Key: 6.31 µM

Exercise: I would be grateful if you could share the reported AC50 for CN(CCOc1ccccc1)c1cc(Cl)nc(-c2cccnc2)n1 .
Key: 4 µM

Exercise: I would be grateful if you could share the reported AC50 for CN(CCOc1ccc2nccnc2c1)c1nc(-c2cccnc2)nc2ccccc12 .
Key: 10 µM

Exercise: I would be grateful if you could share the reported AC50 for CN(CCC(=O)Nc1ccccc1)c1nc(-c2cccnc2)nc2c1cnn2C .
Key: 44.7 µM

Data provenance is patent US12291533B2.
